Target: Cathepsin B (Homo sapiens)
The following compounds are shown together with reported IC50 values.
measurement_kind: IC50

1) N#Cc1nc2c(nc1C#N)-c1ccc(Cl)cc1C2=NNC(N)=O
> 100 µM
2) COc1nc2c(nc1C#N)C(=O)c1ccccc1-2
> 100 µM
3) COc1ccc2c(c1OC)C(=O)c1nc(C#N)c(C#N)nc1-2 [Example 17d]
87 µM
4) CCO/C(O)=C(\C#N)c1nc2c(nc1C#N)C(=O)c1ccccc1-2
> 100 µM
5) Cc1cccc2c1Cc1nc(C#N)c(C#N)nc1-2 [Example 16c]
> 100 µM
6) CCON=C1c2ccccc2-c2nc(C#N)c(C#N)nc21 (mixture of isomers) [Example 13d]
> 100 µM
7) N#Cc1nc2c(nc1N1CCC(F)(F)CC1)-c1ccccc1C2=O
> 100 µM
8) N#Cc1nc2c(nc1C#N)-c1ccccc1C2=NO
21 µM
9) N#Cc1nc2c(nc1C#N)-c1ccccc1/C2=N/Oc1ccccc1 [Example 13e]
> 100 µM

* * *

Molecular target: Cathepsin B (Homo sapiens, UniProt P07858)
pIC50: −log10 of the molar value.
Tick Criterion met if pIC50 is 5 or greater. Tick Criterion not met if pIC50 is less than 5.

1. CON=C1c2ccccc2-c2nc(C(N)=O)c(C#N)nc21 [Example 34d]
Criterion met
2. N#Cc1nc2c(nc1C#N)-c1ccc(Cl)cc1C2=O [Example 17g]
Criterion met
3. CCSc1nc2c(nc1C#N)C(=O)c1ccccc1-2
Criterion not met
4. C=CCON=C1c2ccccc2-c2nc(C#N)c(C#N)nc21 (mixture of isomers) [Example 13b]
Criterion not met
5. N#Cc1nc2c(nc1C#N)C(=O)c1ccccc1C2=O
Criterion not met
6. C=CCON=C1c2ccccc2-c2nc(C(N)=O)c(C#N)nc21 [Example 34a]
Criterion met
7. CON=C1c2ccccc2-c2nc(C#N)c(C#N)nc21 [Example 13a]
Criterion not met
8. CCc1ccc2c(c1)-c1nc(C#N)c(C#N)nc1C2=O
Criterion not met
9. Cc1ccc2c(c1)-c1nc(C#N)c(C#N)nc1C2=O [Example 17e]
Criterion not met

* * *

pIC50: −log10 of the molar value.
Target or system Uch-L3 (Homo sapiens): recorded pIC50 listed per item.
measurement_kind: pIC50

1. C=CCON=C1c2ccccc2-c2nc(C#N)c(C#N)nc21 (mixture of isomers) [Example 13b]
5.00
2. CON=C1c2ccccc2-c2nc(C#N)c(C#N)nc21 [Example 13a]
5.66
3. COc1cc2c(cc1OC)-c1nc(C#N)c(C#N)nc1C2=O [Example 17b]
5.27
4. N#Cc1nc2c(nc1C#N)-c1ccc(O)cc1C2=O [Example 17j]
5.10
5. COc1ccc2c(c1)C(=O)c1nc(C#N)c(C#N)nc1-2 [Example 17i]
5.51
6. COc1ccc(OC)c2c1C(=O)c1nc(C#N)c(C#N)nc1-2 [Example 17f]
6.22
7. CCSc1nc2c(nc1C#N)C(=O)c1ccccc1-2
4.07
8. C=CCON=C1c2ccccc2-c2nc(C(N)=O)c(C#N)nc21 [Example 34a]
7.49
9. N#Cc1nc2c(nc1C#N)-c1ccccc1/C2=N/Oc1ccccc1 [Example 13e]
6.27
10. N#Cc1nc2c(nc1C#N)C(=O)c1ccccc1C2=O
4.40
